The reported measurements were obtained from patent US9249117B2.

- Tested on: ROS in mesangial cells
- assay details: Determination of reactive oxygen species (ROS) in LPS-treated mesangial cells
- Format: cell-based, Mouse
- details: Mus musculus, Mesangial cell, 5 min; 0.048 μg/ml, in 5 minutes; read-out: Inhibiting ROS %
Record form. Attribute: inhibition at 0.048 µg/mL. Fill in for each entry.
Number in %, nothing else.

QUERY: Recall the recorded inhibition at 0.048 µg/mL for COC1=C(OC)[C@H](O)[C@H](C/C=C(\C)CC/C=C(\C)C/C=C/C(C)(C)O)[C@@H](C)C1=O [Antrocamol LT3] with ROS in mesangial cells and state it.
RESULT: 0

QUERY: Recall the recorded inhibition at 0.048 µg/mL for COC1=C(OC)C(O)C(CC=C(C)CCC=C(C)CC(O)C=C(C)C)C(C)C1=O (stereo not shown) [Antrocamol LT1] with ROS in mesangial cells and state it.
RESULT: 14

QUERY: Recall the recorded inhibition at 0.048 µg/mL for COC1=C(OC)C(OC(C)=O)C(CC=C(C)CCC=C(C)CC(O)C=C(C)C)C(C)C1=O (stereo not shown) [Antrocamol LT2] with ROS in mesangial cells and state it.
RESULT: 0

QUERY: Recall the recorded inhibition at 0.048 µg/mL for COC1=C(OC)[C@H](O)[C@H](C/C=C(\C)CC/C=C(\C)CCC=C(C)C)[C@@H](C)C1=O [Antroquinonol, reference compound] with ROS in mesangial cells and state it.
RESULT: 0
